experiment: drug combination growth inhibition, ovarian cancer – cell-based, oncology-focused library, rucaparib conditional, profiling panel (AID 1508598)
condition.context: patient-derived ovarian cancer cells, CellTiter-Glo viability, 144 h; at 0.0195 µM; OCI-P5x cells; without rucaparib; stronger effect = lower value
Consider the following compounds; for each one, report its viability.
Numbers only, in %.

Would you please look over these solved cases?
Exercise: What value of viability has been reported for the following compound? CC(=O)OCC(=O)[C@]1(O)[C@H](C)C[C@H]2[C@@H]3CCC4=CC(=O)C=C[C@]4(C)[C@]3(F)[C@H](O)C[C@@]21C
Key: 99.6

Exercise: Entry Cc1ccc(NC(=O)c2ccc(CN3CCN(C)CC3)cc2)cc1Nc1nc(-c2cccnc2)cs1 has what viability?
Key: 85.4

Exercise: Look up viability for this compound: N[C@@H]1CCCN(c2c(/C=C3\SC(=O)NC3=O)cccc2-c2ccccc2)C1
Key: 111

Exercise: I am curious: what viability value has been reported for Cc1cc(NC(=O)c2cccc(NC(=O)/C=C/CN(C)C)c2)ccc1Nc1nccc(-c2cccnc2)n1 ?
Key: 106

Exercise: Reported viability for Nc1nonc1C(=Nc1ccc(F)c(Cl)c1)NO : what is it?
Key: 95.7

# batch: return viability for each of the 3 compounds below
1. C[C@H](O[C@H]1OCCN(Cc2n[nH]c(=O)[nH]2)[C@H]1c1ccc(F)cc1)c1cc(C(F)(F)F)cc(C(F)(F)F)c1
2. CC(C)(C)C(=O)Nc1ccc2c(c1)C(=O)C(=O)c1ccccc1-2
3. Cc1cc2c(C(=O)NC[C@H](C)c3ccccc3)c(O)c(O)cc2c(O)c1-c1c(C)cc2c(C(=O)NC[C@H](C)c3ccccc3)c(O)c(O)cc2c1O

Key:
[112, 64.3, 91.3]

* * *

experiment: viability loss with induced miR-34 in A549 – imaging, A549 dox-inducible miR-34, nuclei and caspase counts, primary screen (AID 1347080)
condition.context: A549 miR-34 inducible, Hoechst nuclei count, 48 h; measured here: relative caspase fold change +Dox/-Dox
Threshold 1. fold change below it: satisfied. fold change at it or above: not satisfied.

See these solved cases before continuing.
Exercise: Take the compound N.N.O=C(O)C1(C(=O)O)CCC1.[Pt+2] and say whether its fold change is less than 1.
Key: not satisfied

Exercise: is_below(fold change, 1) for CC(NC(=O)C(O)c1cc(F)cc(F)c1)C(=O)NC1C(=O)N(C)c2ccccc2-c2ccccc21 (stereo unspecified) ?
Key: satisfied

Exercise: Is 1 strictly greater than the compound's reported fold change? compound: CN1CC(=O)N2C(Cc3c([nH]c4ccccc34)C2c2ccc3c(c2)OCO3)C1=O (stereo unspecified)
Key: not satisfied

Exercise: Consider CC(C)(C)OC(=O)NC1CCCCCC=CC2C[C@@]2(C(=O)NS(=O)(=O)C2CC2)NC(=O)C2CC(OC(=O)N3Cc4cccc(F)c4C3)CN2C1=O (stereo partly specified) . Does its fold change lie strictly below 1?
Key: not satisfied

Exercise: Report whether reported fold change is lower than 1 (strictly) for [Cl-].[Cl][Pt].[NH2-].[NH2-].c1ccncc1
Key: satisfied

Exercise: Regarding Nc1cccc(-c2cccc(OCc3ccccc3)c2)n1 , kindly confirm whether its fold change is beneath 1.
Key: not satisfied

Exercise: Criterion: fold change strictly below 1. Is it met by Nc1nc(OCC2CCCCC2)c2[nH]cnc2n1 ?
Key: not satisfied

Exercise: Input CCC(C)N1CCC2(CC1)N=c1c(c3c4c5c(C)c(O)c3c(O)c1=NC(=O)/C(C)=C/C=C/[C@H](C)[C@H](O)[C@@H](C)[C@@H](O)[C@@H](C)[C@H](OC(C)=O)[C@H](C)[C@@H](OC)/C=C/O[C@@](C)(O5)C4=O)N2 (stereo partly specified) ; condition: fold change strictly below 1. Does it hold?
Key: satisfied

Exercise: Find out if reported fold change for CCc1nc(NC(=O)NCCc2nc(-c3ccc(C)cc3)no2)nn1C is less than 1
Key: not satisfied

Exercise: Given the entry CC(=O)C1CC[C@H]2[C@@H]3CCC4=CC(=O)CC[C@]4(C)[C@@H]3CC[C@]12C (stereo partly specified) , would its reported fold change be below 1?
Key: not satisfied

Lab note: next compound to report on.
Exercise: Please determine if Cc1ccc(Cl)cc1N(CC(=O)Nc1c(F)cccc1F)S(C)(=O)=O is below 1 in terms of fold change.
Key: satisfied

* * *

experiment: growth inhibition, single agents and combos, HTB85, cell-based, BGB or cisplatin IC20 combos, synergistic combos for chromothripsis tumors (AID 1671453);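 also: cells exposed for 96 hours before readout; 0% = vehicle DMSO and 100% = high DMSO killing control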
condition.context: HTB85 osteosarcoma cells, drug combinations, measured here: with cisplatin IC20, at 5 µM, stronger effect = higher value
attribute.measured: inhibition (%)
One number for each entry, in %.

Illustrative cases are given below, each with its answer.
Exercise: Give its inhibition value. Item: N#Cc1ccc(OC2CCC(NC(=O)CCSc3nc4ccccc4c(=O)[nH]3)CC2)cc1 (stereo unspecified)
Key: -13.4

Exercise: I would be grateful if you could share the reported inhibition for COc1cccc2c1C(=O)c1c(O)c3c(c(O)c1C2=O)CC(O)(C(=O)CO)CC3OC1CC(N)C(OC2CCCCO2)C(C)O1 (stereo unspecified) .
Key: 99.6

Exercise: Report inhibition for CN(C)C(=S)NN=C(c1ccccn1)c1ccccn1 please.
Key: 88.7

Exercise: Could you share which inhibition value was measured for C[C@@H]1COCCN1c1cc(C2(S(C)(=O)=O)CC2)nc(-c2cccc3[nH]ccc23)n1 ?
Key: 91.9

Exercise: Data request, read-out inhibition, for Cn1cnc2[nH]c(=O)[nH]c(=O)c21
Key: 18.6

For every item below, please supply its inhibition.
1. O=C(O)c1cc2cccc([N+](=O)[O-])c2[nH]1
2. C[C@@H]1O[C@@H](O[C@@H]2[C@@H](O)[C@H](OCCc3ccc(O)c(O)c3)O[C@H](CO)[C@H]2OC(=O)C=Cc2ccc(O)c(O)c2)[C@H](O)[C@H](O)[C@H]1O
3. Cc1cc(C)c(Nc2ccnc(Nc3ccc(C#N)cc3)n2)c(C)c1
4. C[C@H](NC(=O)c1ccccc1N=Cc1c(O)ccc2ccccc12)c1ccccc1
5. CC1CN(c2c(F)c(N)c3c(=O)c(C(=O)O)cn(C4CC4)c3c2F)CC(C)N1 (stereo unspecified)
6. NC(=S)NN=Cc1ncccc1N
7. O=C1C(=Cc2cccnc2)C(=O)c2ccccc21
8. O=c1ccn(C2CC(O)C(CO)O2)c(=O)[nH]1 (stereo unspecified)

Key:
[-2.59, 13.7, 9.74, -2.37, -0.774, 77.8, 0.224, -49.8]

Provide reported inhibition for each item, in the same order as listed.
1. CON=C1CN(c2nc3c(cc2F)c(=O)c(C(=O)O)cn3C2CC2)CC1CN (stereo unspecified)
2. NC(=O)c1cccc2cn(-c3ccc(C4CCCNC4)cc3)nc12 (stereo unspecified)
3. Cc1ccc([N+](=O)[O-])cc1S(=O)(=O)N(C)/N=C\c1cnc2ccc(Br)cn12

Key:
1: 2.1; 2: 8.74; 3: 99.8

* * *

experiment: MELAS cybrid and Rieske KO viability enhancers – cell-based, MELAS cybrids, Rieske KO mouse fibroblasts, CellTiter-Glo, primary screen (AID 1508586);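 also: z relative to plate mean and SD of compound and empty wells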
condition.context: Rieske KO mouse fibroblast survival, low glucose, CellTiter-Glo 72 h
attribute.measured: z-score
Answers are plain numbers.

Consider the reported z-score for these compounds:
Exercise: I'd like to know its z-score. The compound in question is CC(C)(C)c1cc(C(=O)C(C#N)=NNc2cccc(Cl)c2)no1
Key: -3.22

Exercise: What measured z-score goes with Cc1nn(C)cc1-c1ccnc(N2CCCN(c3ccc(F)cc3)CC2)n1 ?
Key: 2.39

Exercise: Field request: z-score | item: OCc1ccccc1OC1OC(CO)C(O)C(O)C1O (stereo unspecified)
Key: 0.733

Exercise: Param item = CN1CCC(CN(C)Cc2ccc(-c3nc(-c4ccncc4)cc(=O)[nH]3)cc2)CC1 ; retrieve measured z-score.
Key: 0.164

I would be grateful if you could provide z-score for each of the following entries.
1. O=C(O)Cc1c[nH]c2ccccc12
2. CC(=O)Nc1cccc(-c2nn(CC(=O)Nc3cnn(C)n3)c3ccccc23)c1
3. Cc1cc(C(=O)N2CCc3[nH]nc(COc4ccccc4)c3C2)c(C)o1

Key:
1: -0.265; 2: 0.241; 3: -0.219

* * *

experiment: viability loss with induced miR-34 in A549 – imaging, A549 dox-inducible miR-34, nuclei and caspase counts, primary screen (AID 1347080)
condition.context: A549 miR-34 inducible, Hoechst nuclei count, 48 h; measured here: relative caspase fold change +Dox/-Dox
Could you please report measured fold change for the items listed next?

Exercise: Which fold change is reported for this compound? C[C@]12CCC(=O)C=C1CC[C@@H]1[C@H]2C(O)C[C@@]2(C)[C@H]1CC[C@@]2(O)C(=O)CO (some centres undefined)
Key: 0.886

I need fold change for every entry listed below, if you could help.
1. CCCC(CCC)C(=O)OC1CC2CCC(C1)[N+]2(C)C (centres undefined)
2. Cc1cc(Nc2ccc(NC(=O)c3ccc(Nc4ccnc5ccccc45)cc3)cc2)nc(N)n1
3. CCC1=CC2CN(C1)Cc1c([nH]c3ccccc13)[C@@](C(=O)OC)(c1cc3c(cc1OC)N(C)C1[C@@](O)(C(=O)OC)C(OC(C)=O)[C@]4(CC)C=CCN5CC[C@]31C54)C2 (some centres undefined)
4. O=C(Nc1ccc(S(=O)(=O)Nc2ccccc2Cl)c(Cl)c1)c1ccccn1
5. COc1cccc2c(=O)n(Cc3ccc4ncccc4c3)cnc12
6. Cc1cc(C)c(Nc2ccnc(Nc3ccc(C#N)cc3)n2)c(C)c1
7. Cc1nc(NC(=O)NCc2cccc(Cl)c2)nn1C

Key:
1.54
0.411
1.47
0.513
1.22
0.624
2.08

Exercise: Need fold change of Cn1c(=O)c2[nH]c(-c3ccccc3)nc2n(C)c1=O , thanks.
Key: 3.05

src = PubChem BioAssay
